testTarget: TNK1 (Homo sapiens)
Sequence (Q13470 whole entry): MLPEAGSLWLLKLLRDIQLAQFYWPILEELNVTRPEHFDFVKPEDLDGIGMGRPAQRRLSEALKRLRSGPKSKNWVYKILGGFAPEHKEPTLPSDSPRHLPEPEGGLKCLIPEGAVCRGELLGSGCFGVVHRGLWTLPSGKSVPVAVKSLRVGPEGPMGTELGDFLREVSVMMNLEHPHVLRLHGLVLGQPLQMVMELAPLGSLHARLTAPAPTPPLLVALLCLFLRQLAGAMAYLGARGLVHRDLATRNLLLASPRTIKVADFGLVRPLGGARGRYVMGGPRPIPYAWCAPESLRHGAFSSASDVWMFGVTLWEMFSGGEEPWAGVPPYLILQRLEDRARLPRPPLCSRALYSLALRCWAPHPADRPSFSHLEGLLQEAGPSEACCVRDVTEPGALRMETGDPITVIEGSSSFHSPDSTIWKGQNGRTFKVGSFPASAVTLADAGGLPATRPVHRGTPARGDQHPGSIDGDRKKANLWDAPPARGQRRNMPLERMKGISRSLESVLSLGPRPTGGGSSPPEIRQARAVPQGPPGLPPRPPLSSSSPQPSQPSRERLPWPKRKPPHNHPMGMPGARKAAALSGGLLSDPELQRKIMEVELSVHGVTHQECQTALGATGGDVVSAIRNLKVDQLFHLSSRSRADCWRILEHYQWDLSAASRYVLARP
measurementDescription: TNK1 NanoBRET target engagement assay (HEK293)
Format: cell-based
Parameters: host or cells: HEK293
conditionDetails: HEK293 cells, 2 hours; read-out: NanoBRET TE Assay (HEK293) IC50
pIC50: −log10 of the molar value.
measurementType: pIC50

# example entries with known answers
[
  {
    "smilesRepresentation": "COc1cc(N2CCN(C)CC2)c(Cl)cc1Nc1ncc(Cl)c(Nc2cccnc2N2CCCC2=O)n1",
    "testTarget": "TNK1 (Homo sapiens)",
    "recordedValue": "> 6.82"
  },
  {
    "smilesRepresentation": "CN1CCN(c2c(Cl)cc(Nc3ncc(Cl)c(Nc4cccnc4N4CCCC4=O)n3)c3ccccc23)CC1",
    "testTarget": "TNK1 (Homo sapiens)",
    "recordedValue": "> 6.82"
  },
  {
    "smilesRepresentation": "COc1cc(N2CCN(C)CC2)c(C)cc1Nc1ncc(I)c(Nc2cccnc2N(C)C)n1",
    "testTarget": "TNK1 (Homo sapiens)",
    "recordedValue": "6.00 to 6.82"
  }
]

Input line: Consider the compound shown here: CN1CCN(c2c(Cl)cc(Nc3ncc(Cl)c(Nc4cccnc4N(C)C)n3)c3ccccc23)CC1 What is its recorded pIC50?
Output line: < 6.00

Input line: And for CN1CCN(c2ccc(Nc3ncc(Cl)c(Nc4cccnc4N(C)C)n3)cc2)CC1 ?
Output line: 6.00 to 6.82

Input line: And for CN1CCN(c2ccc(Nc3ncc(Cl)c(Nc4cccnc4N(C)C)n3)c3ccccc23)CC1 ?
Output line: < 6.00

Input line: And for CN1CCN(c2ccc(Nc3ncc(Cl)c(Nc4cccnc4N4CCCC4=O)n3)cc2)CC1 ?
Output line: > 6.82

Input line: And for COc1cc(N2CCN(C)CC2)c(C)cc1Nc1ncc(Br)c(Nc2cccnc2N(C)C)n1 ?
Output line: > 6.82

Input line: And for COc1cc(N2CCN(C)CC2)c(C)cc1Nc1ncc(Cl)c(Nc2cccnc2N2CCCCC2)n1 ?
Output line: < 6.00

Input line: And for COc1cc(N2CCN(C)CC2)ccc1Nc1ncc(Cl)c(Nc2cccnc2N(C)C)n1 ?
Output line: 6.00 to 6.82

Input line: And for COc1cc(N2CCN(C)CC2)c(C)cc1Nc1ncc(Cl)c(Nc2cccnc2N2CCCCC2=O)n1 ?
Output line: 6.00 to 6.82

Input line: And for COc1cc(N2CCN(C)CC2)c(C)cc1Nc1ncc(C(C)=O)c(Nc2cccnc2N(C)C)n1 ?
Output line: < 6.00

Input line: And for CCOc1cc(N2CCN(C)CC2)ccc1Nc1ncc(Cl)c(Nc2cccnc2N(C)C)n1 ?
Output line: < 6.00

* * *

System: phospho-STAT5 in L540 cells
measurementDescription: In vitro pSTAT5 assay (ELISA) in L540 cells
Format: cell-based
conditionDetails: Homo sapiens, L-540, 24 hours, normalized to cell viability, read-out: P-STAT5 Assay IC50
measurementType: IC50

# example entries with known answers
[
  {
    "compound": "COc1cc(N2CCN(C)CC2)c(C)cc1Nc1ncc(I)c(Nc2cccnc2N(C)C)n1 [compound 11]",
    "IC50": "5 to 50 nM"
  },
  {
    "compound": "CN1CCN(c2ccc(Nc3ncc(Cl)c(Nc4cccnc4N(C)C)n3)cc2)CC1 [compound 5]",
    "IC50": "< 5 nM"
  },
  {
    "compound": "COc1cc(N2CCN(C)CC2)c(C)cc1Nc1ncc(Cl)c(Nc2cccnc2N2CCCCC2)n1 [Example No. 14]",
    "IC50": "> 50 nM"
  },
  {
    "compound": "CCOc1cc(N2CCN(C)CC2)ccc1Nc1ncc(Cl)c(Nc2cccnc2N(C)C)n1 [compound 3]",
    "IC50": "5 to 50 nM"
  },
  {
    "compound": "COc1cc(N2CCN(C)CC2)c(Cl)cc1Nc1ncc(Cl)c(Nc2cccnc2N2CCNC2=O)n1 [Example No. 21]",
    "IC50": "< 5 nM"
  },
  {
    "compound": "COc1cc(N2CCN(C)CC2)ccc1Nc1ncc(Cl)c(Nc2cccnc2N2CCCC2=O)n1 [compound 2]",
    "IC50": "< 5 nM"
  }
]

Input line: Consider the compound shown here: CN1CCN(c2ccc(Nc3ncc(Cl)c(Nc4cccnc4N4CCCC4=O)n3)cc2)CC1 [compound 1] What is its recorded IC50?
Output line: < 5 nM

Input line: And for COc1cc(N2CCN(C)CC2)c(Cl)cc1Nc1ncc(Cl)c(Nc2cccnc2N2CCCCC2=O)n1 [Example No. 19] ?
Output line: 5 to 50 nM

Input line: And for COc1cc(N2CCN(C)CC2)c(C)cc1Nc1ncc(Cl)c(Nc2cccnc2N2CCCC2)n1 [compound 8] ?
Output line: 5 to 50 nM

Input line: And for COc1cc(N2CCN(C)CC2)c(Cl)cc1Nc1ncc(Cl)c(Nc2cccnc2N2CCCC2=O)n1 [Example No. 13] ?
Output line: < 5 nM

Input line: And for COc1cc(N2CCN(C)CC2)c(C)cc1Nc1ncc(Br)c(Nc2cccnc2N(C)C)n1 [compound 10] ?
Output line: < 5 nM

Input line: And for COc1cc(N2CCN(C)CC2)c(C)cc1Nc1ncc(C(C)=O)c(Nc2cccnc2N(C)C)n1 [Example No. 12] ?
Output line: > 50 nM

* * *

Quick reference: pIC50 of the listed items.
Test system: phospho-STAT5 in L540 cells
measurementDescription: In vitro pSTAT5 assay (ELISA) in L540 cells
Format: cell-based
conditionDetails: Homo sapiens, L-540, 24 hours, normalized to cell viability, read-out: P-STAT5 Assay IC50
From the text: The L540 cell line harbors a truncating mutation in the C-terminal regulatory region of the protein. As a consequence, TNK1 in L540 cells is constitutively active in phosphorylating key proteins, including STAT5. In TNK1 wild-type conditions (e.g., K562 CML cells), STAT5 phosphorylation is achieved in a TNK1-independent fashion. As such, reductions in phospho-STAT5 signal specific to the L540 cells are a good readout of TNK1 inhibitor function. […]
pIC50: −log10 of the molar value.

[
  {
    "smilesRepresentation": "CN1CCN(c2ccc(Nc3ncc(Cl)c(Nc4cccnc4N(C)C)n3)c3ccccc23)CC1",
    "pIC50": "< 7.30"
  }
]

Input line: Consider the compound shown here: COc1cc(N2CCN(C)CC2)c(C)cc1Nc1ncc(Cl)c(Nc2cccnc2N(C)C)n1 What is its recorded pIC50?
Output line: 7.30 to 8.30

Input line: And for CN1CCN(c2c(Cl)cc(Nc3ncc(Cl)c(Nc4cccnc4N4CCCC4=O)n3)c3ccccc23)CC1 ?
Output line: > 8.30

Input line: And for COc1cc(N2CCN(C)CC2)c(C)cc1Nc1ncc(Cl)c(Nc2cccnc2N2CCNC2=O)n1 ?
Output line: > 8.30

Input line: And for CN1CCN(c2c(Cl)cc(Nc3ncc(Cl)c(Nc4cccnc4N(C)C)n3)c3ccccc23)CC1 ?
Output line: 7.30 to 8.30

Input line: And for COc1cc(N2CCN(C)CC2)ccc1Nc1ncc(Cl)c(Nc2cccnc2N(C)C)n1 ?
Output line: 7.30 to 8.30

Input line: And for CC(C)Oc1cc(N2CCN(C)CC2)ccc1Nc1ncc(Cl)c(Nc2cccnc2N(C)C)n1 ?
Output line: < 7.30

Input line: And for COc1cc(N2CCN(C)CC2)c(C)cc1Nc1ncc(Cl)c(Nc2cccnc2N2CCCCC2=O)n1 ?
Output line: < 7.30

* * *

testTarget: UniProt Q13470
measurementDescription: RBC HotSpot Kinase Assay
Type: biochemical
Design: purchased Reaction Biology Corp., Malvern, Pa
conditionDetails: ATP 10 μM
pIC50: −log10 of the molar value.
Quick reference: pIC50 of the listed items.

Input line: Consider the molecule shown here: COc1cc(N2CCN(C)CC2)c(C)cc1Nc1ncc(Cl)c(Nc2cccnc2N(C)C)n1 [compound 6] What is its recorded pIC50?
Output line: > 8.30

Input line: And for [2H]C([2H])([2H])N(c1ncccc1Nc1nc(Nc2cc(C)c(N3CCN(C)CC3)cc2OC)ncc1Br)C([2H])([2H])[2H] [Example No. 27] ?
Output line: > 8.30

Input line: And for CN1CCN(c2ccc(Nc3ncc(Cl)c(Nc4cccnc4N(C)C)n3)c3ccccc23)CC1 [Example No. 17] ?
Output line: 7.82 to 8.30

Input line: And for COc1cc(N2CCN(C)CC2)c(C)cc1Nc1ncc(C#N)c(Nc2cccnc2N(C)C)n1 [Example No. 20] ?
Output line: 7.82 to 8.30

Input line: And for CCOc1cc(N2CCN(C)CC2)ccc1Nc1ncc(Cl)c(Nc2cccnc2N(C)C)n1 [compound 3] ?
Output line: 7.30 to 7.82

Input line: And for COc1cc(N2CCN(C)CC2)c(Cl)cc1Nc1ncc(Br)c(Nc2cccnc2N2CCCC2=O)n1 [Example No. 23] ?
Output line: > 8.30

Input line: And for CN1CCN(c2c(Cl)cc(Nc3ncc(Cl)c(Nc4cccnc4N(C)C)n3)c3ccccc23)CC1 [compound 7] ?
Output line: > 8.30

Input line: And for CN1CCN(c2ccc(Nc3ncc(Cl)c(Nc4cccnc4N(C)C)n3)cc2)CC1 [compound 5] ?
Output line: 7.82 to 8.30
